Test system: P-gp
TEST_DESCRIPTION: Substrate activity at P-gp (unknown origin) assessed as efflux ratio
Assay type: ADME
TEST_CONDITIONS: human, not told
MEASURED_QUANTITY: efflux ratio

| SMILES_REPRESENTATION | NUMERIC_RESULT |
| --- | --- |
| O=C(c1cc(F)cc(Cl)c1)N1CCc2oc(-c3ccc(F)cn3)nc2C1 | 0.9 |
| O=C(c1cc(F)cc(Cl)c1)N1CCn2nc(-c3ccc(F)cn3)cc2C1 | 1.2 |
| O=C(c1ccccc1)N1CCc2oc(-c3ccc(F)cn3)nc2C1 | 1.1 |

====

TEST_DESCRIPTION: AUC in monkey at 0.5 mg/kg, iv
Assay type: ADME, organism-based, Macaca mulatta
TEST_CONDITIONS: rhesus monkey, in vivo
MEASURED_QUANTITY: AUC (ng·h/mL)

| SMILES_REPRESENTATION | MEASURED_QUANTITY | RESULT_UNIT | NUMERIC_RESULT |
| --- | --- | --- | --- |
| O=C(c1cccc(F)c1)N1CCc2oc(-c3ccc(F)cn3)nc2C1 | AUC | ng·h/mL | 3050 |

[I] O=C(c1ccccc1)N1CCc2oc(-c3ccc(F)cn3)nc2C1
[II] O=C(c1cc(F)cc(Cl)c1)N1CCc2oc(-c3ccc(F)cn3)nc2C1
query: Of the two listed items, I and II , which carries the larger AUC figure? Indicate which entry you chose by stating its label.
result: II

====

Form field: remaining at 0.5 h, 1 µM (one value per entry).
TEST_DESCRIPTION: Metabolic stability in rat hepatic microsomes assessed as parent compound remaining at 1 uM after 30 mins in presence of NADPH by LC-MS/MS analysis relative to control
Type: ADME, Microsome
TEST_CONDITIONS: liver microsomes, read-out: Stability

Some entries whose results are on file:
| SMILES_REPRESENTATION | remaining at 0.5 h, 1 µM |
| --- | --- |
| O=C(c1cc(F)cc(Cl)c1)N1CCc2oc(-c3ccc(F)cn3)nc2C1 | 91 to 97% |
| N#Cc1cc(F)cc(C(=O)N2CCc3oc(-c4ccc(F)cn4)nc3C2)c1 | > 97% |
| O=C(c1ccc(F)cc1)N1CCc2oc(-c3ccc(F)cn3)nc2C1 | > 91% |
| O=C(c1cccc(F)c1)N1CCc2oc(-c3ccc(F)cn3)nc2C1 | 91 to 97% |
| O=C(c1cc(F)cc(Cl)c1)N1CCn2nc(-c3ccc(F)cn3)cc2C1 | > 97% |
| O=C(c1ccccc1)N1CCc2oc(-c3ccc(F)cn3)nc2C1 | 91 to 97% |

// "COc1cccc(C(=O)N2CCc3oc(-c4ccc(F)cn4)nc3C2)c1" : remaining at 0.5 h, 1 µM value = > 91%

====

TGT: CYP2A6 (Homo sapiens, UniProt P11509)
Sequence (P11509 whole entry): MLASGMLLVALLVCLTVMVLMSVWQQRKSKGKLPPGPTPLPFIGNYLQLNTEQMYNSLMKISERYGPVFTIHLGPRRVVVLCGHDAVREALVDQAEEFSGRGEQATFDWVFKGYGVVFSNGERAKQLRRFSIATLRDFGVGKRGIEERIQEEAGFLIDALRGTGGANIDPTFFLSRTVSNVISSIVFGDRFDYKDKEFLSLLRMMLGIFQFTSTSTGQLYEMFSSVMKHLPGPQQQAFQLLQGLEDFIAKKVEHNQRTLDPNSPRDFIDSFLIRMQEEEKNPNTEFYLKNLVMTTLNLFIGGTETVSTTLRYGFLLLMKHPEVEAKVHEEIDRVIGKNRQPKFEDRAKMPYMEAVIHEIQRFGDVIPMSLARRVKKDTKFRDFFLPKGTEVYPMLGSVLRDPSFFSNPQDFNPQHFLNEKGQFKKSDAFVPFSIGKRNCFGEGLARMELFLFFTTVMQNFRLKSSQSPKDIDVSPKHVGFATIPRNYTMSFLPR
TEST_DESCRIPTION: Inhibition of CYP2A6 in human liver microsomes using coumarin as substrate after 10 mins by LC-MS/MS analysis
Type: ADME
TEST_CONDITIONS: human, liver microsomes, probe coumarin
MEASURED_QUANTITY: IC50 at 10 min

// "O=C(c1cc(F)cc(Cl)c1)N1CCn2nc(-c3ccc(F)cn3)cc2C1" : IC50 at 10 min value = > 40 µM

Hey, just so you know, these numbers are from ChEMBL document CHEMBL4043199.
